- SYSTEM: BRD9 (Homo sapiens)
- ASSAY NAME: BRD9 degradation, HiBiT-BRD9 KI HEK293 (LgBiT) cells, NanoGlo Lytic Endpoint assay (Assay Protocol 1)
- Format: cell-based
- ASSAY CONDITIONS: Table 5; assay protocol 1; read-out: BRD9 DC50
- Protocol: HiBiT-BRD9 KI HEK293 (LgBiT) Cells (Promega CS3023412) were seeded at 8000 cells per well (38 μL) in sterile white bottom 384 well plates (Invitrogen 164610 or Greiner 781080) and incubated overnight at 37° C. with 5% CO2. The next day, compounds were prepared at 1000× final concentration in DMSO and diluted 1:100 in media (DMEM PAN Biotech P04-03550+10% FBS ATCC 302025). […]
RESULT TYPE: DC50

>  <COMPOUND>
COc1cc(-c2cn(C)c(=O)c(C)c2C)cc(OC)c1CN1CCN(C(=O)/C(C#N)=C/C(C)(C)C)CC1

>  <RESULT TYPE>
DC50

>  <ENDPOINT RESULT>
25 to 1000 nM

$$$$
>  <COMPOUND>
COc1cc(-c2cn(C)c(=O)c(C)c2C)cc(OC)c1CN(C)C1CCN(C(=O)/C(C#N)=C/C(C)(C)C)CC1

>  <RESULT TYPE>
DC50

>  <ENDPOINT RESULT>
10 to 25 nM

$$$$
>  <COMPOUND>
COc1cc(-c2cn(C)c(=O)c(C)c2C)cc(OC)c1CN1CCN(C(=O)/C(C#N)=C/c2cccc(Br)n2)CC1

>  <RESULT TYPE>
DC50

>  <ENDPOINT RESULT>
< 1.25 nM

$$$$

Request: # input compound: COc1cc(-c2cn(C)c(=O)c(C)c2C)cc(OC)c1CN1C2CC1CN(C(=O)/C(C#N)=C/c1cccc(Br)n1)C2 (mixture of isomers) ; wanted: its DC50
Response: 10 to 25 nM

Request: # input compound: COc1cc(-c2cn(C)c(=O)c(C)c2C)cc(OC)c1CN1CC2CC1CN2C(=O)/C(C#N)=C/C(C)(C)C (mixture of isomers) ; wanted: its DC50
Response: 10 to 25 nM

Request: # input compound: COc1cc(-c2cn(C)c(=O)c(C)c2C)cc(OC)c1CN1CC2CC1CN2C(=O)/C(C#N)=C/c1nccs1 (mixture of isomers) ; wanted: its DC50
Response: 25 to 1000 nM

###

- SYSTEM: BRD9 (Homo sapiens, UniProt Q9H8M2)
- Sequence (Q9H8M2 whole entry): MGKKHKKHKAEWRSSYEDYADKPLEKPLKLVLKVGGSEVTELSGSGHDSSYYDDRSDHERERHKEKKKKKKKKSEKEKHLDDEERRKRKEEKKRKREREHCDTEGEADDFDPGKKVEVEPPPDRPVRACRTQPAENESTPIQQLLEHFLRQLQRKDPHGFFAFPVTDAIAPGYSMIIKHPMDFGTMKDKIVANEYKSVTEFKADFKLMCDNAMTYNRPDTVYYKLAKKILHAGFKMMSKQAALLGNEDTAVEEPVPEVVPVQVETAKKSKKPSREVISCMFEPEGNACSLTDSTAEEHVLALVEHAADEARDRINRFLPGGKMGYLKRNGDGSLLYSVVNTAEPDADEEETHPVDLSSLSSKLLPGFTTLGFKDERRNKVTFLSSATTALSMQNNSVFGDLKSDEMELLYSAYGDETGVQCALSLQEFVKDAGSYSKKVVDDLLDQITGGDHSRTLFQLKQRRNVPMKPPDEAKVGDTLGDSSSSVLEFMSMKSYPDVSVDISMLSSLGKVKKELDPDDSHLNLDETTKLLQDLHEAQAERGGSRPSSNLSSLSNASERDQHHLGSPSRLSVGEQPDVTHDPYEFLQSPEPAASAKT
- ASSAY NAME: BRD9 degradation, HiBiT-BRD9 KI HEK293 (LgBiT) cells, NanoGlo Lytic Endpoint assay (Assay Protocol 1)
- Assay type: cell-based
- ASSAY CONDITIONS: Table 4; BRD9 degradation, determined according to Assay Protocol 1; read-out: DC50^1
Reported DC50 values for a set of compounds

>  <COMPOUND>
COc1cc(-c2cn(C)c(=O)c(C)c2C)cc(OC)c1CN1CCN(C(=O)[C@@H]2CN(C(=O)/C(C#N)=C/C(C)(C)C)C[C@H]2C2CCCCC2)CC1 [Compound B210]

>  <DC50>
25 to 200 nM

$$$$
>  <COMPOUND>
COc1cc(-c2cn(C)c(=O)c(C)c2C)cc(OC)c1CN1CC2CC1CN2C(=O)/C(C#N)=C/c1nccs1 (mixture of isomers) [BRD9i]

>  <DC50>
25 to 200 nM

$$$$
>  <COMPOUND>
COc1cc(-c2cn(C)c(=O)c(C)c2C)cc(OC)c1CN1CCN(C(=O)/C(C#N)=C/C(C)(C)C)CC12CC2 [BRD9f]

>  <DC50>
< 25 nM

$$$$

Request: # input compound: COc1cc(-c2cn(C)c(=O)c(C)c2C)cc(OC)c1CN1CCCN(C(=O)/C(C#N)=C/C(C)(C)C)CC1 [BRD9c] ; wanted: its DC50
Response: < 25 nM

Request: # input compound: COc1cc(-c2cn(C)c(=O)c3ccsc23)cc(OC)c1CN1CCN(C(=O)/C(C#N)=C/C(C)(C)C)CC1 [BRD9w] ; wanted: its DC50
Response: < 25 nM

Request: # input compound: COc1cc(-c2cn(C)c(=O)c(C)c2C)cc(OC)c1CN(C)C1CCN(C(=O)/C(C#N)=C/C(C)(C)C)CC1 [BRD9d] ; wanted: its DC50
Response: 25 to 200 nM

Request: # input compound: COc1cc(-c2cn(C)c(=O)c(C)c2C)cc(OC)c1CN1CC2CC1CN2C(=O)/C(C#N)=C/c1cccc(Br)n1 (mixture of isomers) [BRD9j] ; wanted: its DC50
Response: < 25 nM

Request: # input compound: COc1cc(-c2cn(C)c(=O)c(C)c2C)cc(OC)c1CN1CCN(C(=O)[C@@H]2CN(C(=O)/C(C#N)=C/C(C)(C)C)C[C@H]2C(C)C)CC1 [Compound B212] ; wanted: its DC50
Response: 25 to 200 nM

Request: # input compound: COc1cc(-c2cn(C)c(=O)c(C)c2C)cc(OC)c1CN1CCN(C(=O)C2CC(C(C)C)CN(C(=O)/C(C#N)=C/C(C)(C)C)C2)CC1 (stereo not shown) [Compound B207] ; wanted: its DC50
Response: 25 to 200 nM

Request: # input compound: COc1cc(-c2cn(C)c(=O)c(C)c2C)cc(OC)c1CN1CCN(C(=O)C2CCCN(C(=O)/C(C#N)=C/C(C)(C)C)C2)CC1 (stereo not shown) [Compound B206] ; wanted: its DC50
Response: 25 to 200 nM

Request: # input compound: COc1cc(-c2cn(C)c(=O)c(C)c2C)cc(OC)c1CN1CC2CC1CN2C(=O)/C(C#N)=C/c1cccc(C(F)(F)F)n1 (mixture of isomers) [BRD9x] ; wanted: its DC50
Response: < 25 nM

Request: # input compound: COc1cccc(/C=C(\C#N)C(=O)N2CC3CC2CN3Cc2c(OC)cc(-c3cn(C)c(=O)c(C)c3C)cc2OC)n1 (mixture of isomers) [BRD9k] ; wanted: its DC50
Response: < 25 nM

Request: # input compound: COc1cc(-c2cn(C)c(=O)c(C)c2C)cc(OC)c1CN1CCN(C(=O)[C@@H]2CN(C(=O)/C(C#N)=C/c3nccs3)C[C@H]2C2CCCCC2)CC1 [Compound B209] ; wanted: its DC50
Response: > 200 nM

Request: # input compound: COc1cc(-c2cn(C)c(=O)c(C)c2C)cc(OC)c1CN1CCN(C(=O)/C(C#N)=C/C(C)(C)C)CC1 [BRD9a] ; wanted: its DC50
Response: > 200 nM

Request: # input compound: COc1ccc(C2CC(C(=O)N3CCN(Cc4c(OC)cc(-c5cn(C)c(=O)c(C)c5C)cc4OC)CC3)CN(C(=O)/C(C#N)=C/C(C)(C)C)C2)cc1 (stereo not shown) [Compound B208] ; wanted: its DC50
Response: < 25 nM

Request: # input compound: COc1cc(-c2cn(C)c(=O)c(C)c2C)cc(OC)c1CN1CCN(C(=O)[C@@H]2CN(C(=O)/C(C#N)=C/c3ccc(F)cc3)C[C@H]2C2CCCCC2)CC1 [Compound B211] ; wanted: its DC50
Response: > 200 nM

Request: # input compound: COc1cc(-c2cn(C)c(=O)c(C)c2C)cc(OC)c1CN1CC2CC1CN2C(=O)/C(C#N)=C/C(C)(C)C (mixture of isomers) [BRD9b] ; wanted: its DC50
Response: < 25 nM

###

- SYSTEM: BRD9 (Homo sapiens)
- ASSAY NAME: Degradation of BRD9 (IF), immunofluorescence in MV4-11 cells, 24 hours (Assay Protocol 2)
- Assay type: cell-based
- Parameters: A suspension of MV4-11 cells (ATCC CRL-9591) was prepared; host or cells: MV4-11
- ASSAY CONDITIONS: MV4-11, Assay protocol 2; BRD9 degradation; read-out: Dmax
RESULT TYPE: Dmax

Request: # input compound: CC[C@H]1CN(Cc2cccc3c2CCN(C(=O)/C(C#N)=C/C(C)(C)C)C3C)CCN1Cc1c(OC)cc(-c2cn(C)c(=O)c(C)c2C)cc1OC (mixture of isomers) ; wanted: its Dmax
Response: > 75%

Request: # input compound: COc1cc(-c2cn(C)c(=O)c(C)c2C)ccc1OC1CCN(Cc2cccc3c2CCN(C(=O)/C(C#N)=C/C(C)(C)C)C3C)C2(CC2)C1 (mixture of isomers) ; wanted: its Dmax
Response: > 75%

Request: # input compound: COc1cc(-c2cn(C)c(=O)c(C)c2C)cc(OC)c1CN1CCN(Cc2cccc3c2CCN(C(=O)/C(C#N)=C/C(C)(C)C)C3C)C(C(C)C)C1 (mixture of isomers) ; wanted: its Dmax
Response: > 75%
